All figures here come from patent US8372865B2.

- TESTED_ON: UniProtKB Q99572
- TEST: pKi of Table 1 (assay not stated)
- Type: cell-based
VALUE_KIND: pKi

Cc1cc2c(cc1NC(=O)C1=CNC(=O)C[C@H]1c1ccc(F)cc1)CCC(=O)N2C [Compound 43] : 7.505
O=C1C[C@@H](c2ccc(F)cc2)C(C(=O)Nc2cccc3ccncc23)=CN1 [Compound 47] : 5.29
CCc1cc2c(cc1NC(=O)C1=CNC(=O)C[C@H]1c1ccc(F)cc1)N(CCO)C(=O)CO2 [Compound 40] : 6.485
Cc1cc2cc(C)n(CCO)c2cc1NC(=O)C1=CNC(=O)C[C@H]1c1ccc(F)cc1 [Compound 29] : 6.285
O=C1C[C@@H](c2ccc(F)cc2)C(C(=O)Nc2cc3c(cc2Br)CCC(=O)N3CCO)=CN1 [Compound 19] : 5.535
Cc1c(NC(=O)C2=CNC(=O)C[C@H]2c2ccc(F)cc2)ccc2ncccc12 [Compound 17] : 6.805
Cn1ccc2c(NC(=O)C3=CNC(=O)C[C@H]3c3ccc(F)cc3)cccc2c1=O [Compound 58] : 7.56
O=C1C[C@@H](c2ccc(F)cc2)C(C(=O)Nc2cccc3ncccc23)=CN1 [Compound 5] : 5.345

---

- TESTED_ON: P2X7 receptor (UniProt Q99572)
- TEST: pKi of Table 1 (assay not stated)
- Format: cell-based
VALUE_KIND: pKi

CCc1cc2c(cc1NC(=O)C1=CNC(=O)C[C@H]1c1cccc(F)c1)N(C)C(=O)CO2 : 7.125
Cc1ccc2c(NC(=O)C3=CNC(=O)C[C@H]3c3ccc(F)cc3)c(C)ccc2n1 : 7.8567
O=C1C[C@@H](c2cccc(F)c2)C(C(=O)Nc2ccc3ncccc3c2Br)=CN1 : 6.953
O=C1C[C@@H](c2cccc(F)c2)C(C(=O)Nc2cc3c(cc2Br)CCC(=O)N3)=CN1 : 5.415
O=C1C[C@@H](c2ccc(F)cc2)C(C(=O)Nc2cc3c(cc2Br)CCC(=O)N3)=CN1 : 5.145
CCc1c(NC(=O)C2=CNC(=O)C[C@H]2c2cccc(F)c2)ccc2nc(C)ccc12 : 7.635
Cc1c(NC(=O)C2=CNC(=O)C[C@H]2c2cccc(F)c2)ccc2ncccc12 : 6.645
Cc1cc2c(cc1NC(=O)C1=CNC(=O)C[C@H]1c1ccc(F)cc1)N(C)C(=O)CO2 : 6.73
Cc1cc2c(cc1NC(=O)C1=CNC(=O)C[C@H]1c1ccc(F)cc1)N(CCO)C(=O)CC2 : 6.285
Cc1cc2c(NC(=O)C3=CNC(=O)C[C@H]3c3ccc(F)cc3)cccc2nn1 : 5.425
O=C1CC(c2cccc(F)c2)C(C(=O)Nc2ccc3cc[nH]c3c2)=CN1 (stereo not drawn) : 5.24
CN1C(=O)CCc2cc(Br)c(NC(=O)C3=CNC(=O)C[C@H]3c3ccc(F)cc3)cc21 : 6.9
Cc1cc2c(cc1NC(=O)C1=CNC(=O)C[C@H]1c1ccc(F)cc1)N(CCO)C(=O)CO2 : 5.48
Cc1cc2cnn(CCO)c2cc1NC(=O)C1=CNC(=O)C[C@H]1c1ccc(F)cc1 : 7.645
Cc1cc2c(cc1NC(=O)C1=CNC(=O)C[C@H]1c1cccc(F)c1)N(C)C(=O)CO2 : 7.015
Cc1ccc2c(=O)n(C)ccc2c1NC(=O)C1=CN(C)C(=O)C[C@H]1c1ccc(F)cc1 : 7.45
CN1C(=O)COc2cc(Br)c(NC(=O)C3=CNC(=O)C[C@H]3c3cccc(F)c3)cc21 : 6.905
CC1=C(C(=O)Nc2ccc3[nH]ncc3c2)C(c2ccc(F)cc2)CC(=O)N1 (stereo not drawn) : 5.14
Cc1cc2ncccc2cc1NC(=O)C1=CNC(=O)C[C@H]1c1cccc(F)c1 : 6.825
O=C1C[C@@H](c2ccc(F)cc2)C(C(=O)Nc2ccc3ncccc3c2Br)=CN1 : 7.135
Cc1cc2c(cc1NC(=O)C1=CNC(=O)C[C@H]1c1ccc(F)cc1)N(C)C(=O)CC2 : 7.16
CCc1cc2cnn(CCO)c2cc1NC(=O)C1=CNC(=O)C[C@H]1c1cccc(F)c1 : 7.7
Cc1cc2ccn(CCO)c2cc1NC(=O)C1=CNC(=O)C[C@H]1c1ccc(F)cc1 : 7.71
O=C1C[C@@H](c2ccc(F)cc2)C(C(=O)Nc2cc3c(cc2Br)N(CCO)C(=O)CC3)=CN1 : 6.785
Cc1ccc2c(NC(=O)C3=CNC(=O)C[C@H]3c3ccc(F)cc3)cccc2n1 : 7.46
CN1C=C(C(=O)Nc2cccc3c(=O)n(CCO)ccc23)[C@H](c2ccc(F)cc2)CC1=O : 7.04
O=C1C[C@@H](c2cccc(F)c2)C(C(=O)Nc2cc3c(cc2Br)OCC(=O)N3)=CN1 : 5.925
